Values compiled from patent US6096770A.

- System: Aorta
- test: Inhibition of contractions in aorta (indication of selectivity, Table I)
- Format: cell-based

{"compound": "O=C([O-])c1ccccc1NC(=O)c1ncoc1-c1ccc(C(F)(F)F)cc1.[Li+] [Example 3, lithium salt]", "unit text": "µM", "IC50": 7.35}

* * *

- System: Isolated Rat Bladder Strips
- test: Inhibition of Contractions in Isolated Rat Bladder Strips (15 mM KCl-enhanced contractile activity)
- Format: tissue-based, Sprague-Dawley rats
- reported conditions: 0.5 h; isolated rat bladder strips, 15 mM KCl, 37 deg. C., pH 7.4, 30 minute challenge; read-out: IC50 Bladder (B): concentration required to elicit 50% inhibition of pre-drug contractile activity
- Method: Sprague-Dawley rats (150-200 g) are rendered unconscious by CO2 asphyxiation and then euthanized by cervical dislocation. […] The bladder is opened and then cut into strips 1-2 mm in width and 7-10 mm in length. The strips are subsequently suspended in a 10 mL tissue bath under an initial resting tension of 1.5 g. […] Contractile activity is measured for each compound or vehicle concentration during the last minute of a 30 minute challenge.
Reported IC50 values follow for various compounds
property label: IC50 (µM)

{"compound": "O=C(O)c1ccccc1NC(=O)c1ncoc1-c1ccc(C(F)(F)F)cc1 [Example 2]", "unit text": "µM", "observed": 17.9}
{"compound": "O=C(Nc1ccccc1C(=O)O)C1=C(c2ccc(C(F)(F)F)cc2)CCC1 [Example 1]", "unit text": "µM", "observed": 11}
{"compound": "Cc1noc(-c2ccc(C(F)(F)F)cc2)c1C(=O)Nc1ccccc1C(=O)O [Example 4]", "unit text": "µM", "observed": 11.9}
